Conditions: human gut metagenome, 24 h, 2 µM; note: call rule not given here
Assay metric: Bacterial Biotransformation

Compound	Bacterial Biotransformation
Nc1nc2ccc(OC(F)(F)F)cc2s1 [RILUZOLE]	Compound metabolized
CCOc1ccc(NC(C)=O)cc1 [PHENACETIN]	Compound NOT metabolized
NS(=O)(=O)c1cc2c(cc1Cl)N=C(CSCc1ccccc1)NS2(=O)=O [BENZTHIAZIDE]	Compound NOT metabolized
CCC(COC(=O)c1cc(OC)c(OC)c(OC)c1)(c1ccccc1)N(C)C.O=C(O)/C=C\C(=O)O (stereo not given)	Compound metabolized

Kindly consider the entry below.
Query block: Need Bacterial Biotransformation of CC(C)c1nc(CN(C)C(=O)N[C@H](C(=O)N[C@@H](Cc2ccccc2)C[C@H](O)[C@H](Cc2ccccc2)NC(=O)OCc2cncs2)C(C)C)cs1 [RITONAVIR] , thanks.
Result block: Compound metabolized

* * *

Assay: The drug is tested on WLS-073 corresponding to human gut metagenome with ENA study accession number: PRJEB37062 and ENA sample accession number: ERS12561749 for biotransformation under anaerobic condition. The drug concentrations were measured over 9 timepoints collected between 0 and 24 hours of incubation by liquid-chromatography-coupled mass spectrometry (LC–MS)
Settings: 2 µM
Assay metric: Bacterial Biotransformation

Molecule	Bacterial Biotransformation
CC(=O)CC(c1ccccc1)c1c(O)c2ccccc2oc1=O (centres undefined) [WARFARIN]	Compound NOT metabolized
NC12CC3CC(CC(C3)C1)C2 [AMANTADINE]	Compound NOT metabolized
CN(C(=O)CN(CCO)CC(=O)N(C)C(C)(C)Cc1ccccc1)C(C)(C)Cc1ccccc1 [OXETHAZAINE]	Compound metabolized
CN1CCN(C(=O)O[C@H]2c3nccnc3C(=O)N2c2ccc(Cl)cn2)CC1 [ESZOPICLONE]	Compound NOT metabolized

Query block: Request the reported Bacterial Biotransformation associated with O=C1[C@H](CC[C@H](O)c2ccc(F)cc2)[C@@H](c2ccc(O)cc2)N1c1ccc(F)cc1 [EZETIMIBE]
Result block: Compound metabolized

Query block: Would you mind doing CNC(=C[N+](=O)[O-])NCCSCc1csc(CN(C)C)n1 [NIZATIDINE] as well?
Result block: Compound metabolized

* * *

Conditions: human gut metagenome, 24 h, 2 µM
Where a SMILES comes first, the peptide text is derived from it. [ ]: non-standard residue; d: D form. pGlu = O=C1CC[C@@H](C(=O)O)N1; Thz = O=C(O)[C@@H]1CSCN1
Assay metric: Bacterial Biotransformation

Use the examples below as a reference point.
Compound	Assay metric	Recorded result
COc1ccc2[nH]c([S+]([O-])Cc3ncc(C)c(OC)c3C)nc2n1 (centres undefined)	Bacterial Biotransformation	Compound NOT metabolized
CCN1CCCC1CNC(=O)c1cc(S(N)(=O)=O)ccc1OC (centres undefined) [SULPIRIDE]	Bacterial Biotransformation	Compound metabolized
COC(=O)C1=C(C)NC(C)=C(C(=O)OC(C)C)C1c1cccc2nonc12 (centres undefined)	Bacterial Biotransformation	Compound metabolized
CN1CCN(C2=Nc3cc(Cl)ccc3Nc3ccccc32)CC1	Bacterial Biotransformation	Compound metabolized
O=C1CC[C@@H](C(=O)N2CSC[C@H]2C(=O)O)N1 [PIDOTIMOD] ([pGlu]-[Thz]-OH)	Bacterial Biotransformation	Compound metabolized

Query block: I would be grateful if you could share the reported Bacterial Biotransformation for COC1=CC(=O)C[C@@H](C)[C@]12Oc1c(Cl)c(OC)cc(OC)c1C2=O .
Result block: Compound metabolized

Query block: How about CC(C)NCC(O)COc1ccc(CCOCC2CC2)cc1 (centres undefined) ?
Result block: Compound metabolized

Query block: Query O=P(O)(O)O.c1ccc(CN(CC2=NCCN2)c2ccccc2)cc1 [ANTAZOLINE PHOSPHATE] next
Result block: Compound metabolized

Query block: Similarly, O=C(NCc1ccccc1)OCCO [BURAMATE] ?
Result block: Compound NOT metabolized
